# Test system: CCRIS mutagenicity, Ames/micronucleus/aberration tests
# Measurement Notes: CCRIS mutagenicity studies
# Run Conditions: Test System: AMES SALMONELLA TYPHIMURIUM; Strain/Indicator: TA98; Metabolic Activation: RAT, LIVER, S-9, AROCLOR 1254 (10%); Method: PREINCUBATION
Calls of active or inactive are those of the source. No rule for the calls is given here.
Pick one: class 1 (active), class 0 (inactive)

Look over these answered cases.
{"Compound": "COc1ccc([N+](=O)[O-])cc1N=Nc1c(O)c(C(=O)Nc2cccc([N+](=O)[O-])c2)cc2ccccc12", "Label Class": "class 1"}
{"Compound": "O=c1c2[nH]c3ccccc3c2nnn1/N=C/c1ccc([N+](=O)[O-])cc1", "Label Class": "class 1"}
{"Compound": "Oc1ccc2cc(SSc3ccc4cc(O)ccc4c3)ccc2c1", "Label Class": "class 0"}

Recorded call for "Cc1ccc(CO)cc1" ?
class 0

Which outcome did this test record for the compound "CC=C(C)C#N" ?
class 0

Fill in: this test's call for "O=c1nc(O)n(Cl)c(=O)n1Cl" is ___
class 0

Assay result, entry "O=C(O)CNCP(=O)(O)O" — outcome?
class 0

Called result for CCCCC(CC)COCCC#N (stereo not drawn)
class 0
